Tested on: 454973-116-R2-J3-PDC spheroids, percent test/control viability;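 further: spheroids exposed to compounds for 7 days before readout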
procedureText: Anticancer human tumor 454973-116-R2-J3-PDC patient-derived pancreatic carcinoma cell line growth inhibition [CLK]
measurementSetup: second compound 0.1 µM; first compound 0.0316 µM; stronger effect = lower value; spheroids with HUVEC and MSC
Reported viability, T/C is given for each of the following molecules.
Response body: numeric value in %, unit text excluded.

Previously resolved entries follow.
| molecule | unitString | viability, T/C |
| --- | --- | --- |
| Nc1ccn(C2OC(CO)C(O)C2(F)F)c(=O)n1 (stereo not drawn) + CN1CCN(c2cc(C(=O)Nc3cc4cc(-c5cnn(C)c5)ccc4cn3)ccn2)CC1 | % | 10.3 |
| C=CC(=O)N1CCN(c2nc(=O)n(-c3c(C)ccnc3C(C)C)c3nc(-c4c(O)cccc4F)c(F)cc23)C(C)C1 (stereo not drawn) + CNC(=O)c1ccc(Nc2nc(OC3CCCC3)c3c(-c4ccc5nc(C)oc5c4)c[nH]c3n2)c(OC)c1 | % | 107 |

Now take the following molecule into account.
The reported viability, T/C of the molecule C#Cc1c(F)ccc2cc(O)cc(-c3ncc4c(N5CC6CCC(C5)N6)nc(OCC56CCCN5CC(F)C6)nc4c3F)c12 (stereo not drawn) + CNC(=O)c1ccc(Nc2nc(OC3CCCC3)c3c(-c4ccc5nc(C)oc5c4)c[nH]c3n2)c(OC)c1 was 50.7
